This section presents sequences with their documented shrunken log2 fold change values.
# System: Escherichia coli TOP10
# procedure_text: shrunken log2 fold change of peptide-encoding DNA abundance (4.5 h post-induction vs induction); higher = less antimicrobial activity (less host growth inhibition)
# setup_conditions: time post-induction: 4.5 h; library: site-saturation at positions 5, 18, 19, 20
Provide a numeric answer; units are not to be included.

Incoming: Entry "RRIRGRPPRLPRPRPRPPDHPRP" , system Escherichia coli TOP10: what shrunken log2 fold change was measured?
Outgoing: 0.982

---

# System: Escherichia coli TOP10;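 note: peptides expressed intracellularly from a pBAD plasmid library in pooled LB shake-flask culture, induced with 0.3% L-arabinose, DNA abundance read by NGS, three biological replicates, DESeq2 with apeglm shrinkage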
# procedure_text: shrunken log2 fold change of peptide-encoding DNA abundance (4.5 h post-induction vs induction); higher = less antimicrobial activity (less host growth inhibition)
# setup_conditions: time post-induction: 4.5 h; library: site-saturation at positions 5, 18, 19, 20
Property: shrunken log2 fold change; scope: individual sequences
A bare number is all that is needed in reply.

Examples from the recorded data:
RRIRVRPPRLPRPRPRPSTPPRP :: -0.0614
RRIRGRPPRLPRPRPRPVSDPRP :: 1.26
RRIRWRPPRLPRPRPRPHLGPRP :: 0.14

Incoming: Look at this sequence and give its reported shrunken log2 fold change. "RRIRIRPPRLPRPRPRPMDHPRP"
Outgoing: -0.0898

Incoming: One more sequence: "RRIRKRPPRLPRPRPRPYGNPRP"
Outgoing: -0.135

Incoming: Next entry: "RRIRERPPRLPRPRPRPSEGPRP"
Outgoing: 0.00843
